test system: Staphylococcus aureus; experiment: Antimicrobial activity against methicillin-resistant Staphylococcus aureus isolate 5; assay type: functional
assay_metric: MIC (µg/mL)
Please respond with the number in µg/mL and leave the unit unwritten.

// query MIC value for entry C[C@@H]1C2OC3(C)CC4(C=CC(=O)C(C)(CCC(=O)Nc5c(O)ccc(C(=O)O)c5O)C24)CC13 (some centres undefined)
0.25

And then CC12CC34C=CC(=O)C(C)(CCC(=O)Nc5c(O)ccc(C(=O)O)c5O)C3C(O1)[C@@H](Cl)C2C4 (some centres undefined) , what is it?
0.25

And then CC1=CC(=O)C(C)(CCC(=O)Nc2c(O)ccc(C(=O)O)c2O)C2C3CC4CC12CC4(C)O3 (centres undefined) , what is it?
1

* * *

tested on: Staphylococcus aureus; assay: Antimicrobial activity against methicillin-resistant Staphylococcus aureus isolate 5; format: functional
MIC reference
Please respond with the number in µg/mL and leave the unit unwritten.

>  <molecule>
CC1(CCC(=O)Nc2c(O)ccc(C(=O)O)c2O)C(=O)C=CC23CC4CC(OC4(c4ccccc4)C2)C31 (stereo not given)

>  <test_result>
1

$$$$
>  <molecule>
CC12C[C@@]34C=CC(=O)[C@@](C)(CCC(=O)Nc5c(O)ccc(C(=O)O)c5O)C3[C@H](CC1C4)O2 (stereo not given in full)

>  <test_result>
0.25

$$$$

Now let's try a different one.
// query MIC value for entry CC12CC34C=CC(=O)C(C)(CCC(=O)Nc5c(O)ccc(C(=O)O)c5O)C3C(O1)[C@@H](Br)C2C4 (stereo not given in full)
1

* * *

system: Enterococcus faecium; assay: Antimicrobial activity against vancomycin-resistant Enterococcus faecium isolate 15; assay type: functional
assay_metric: MIC

>  <compound>
CC1=CC(=O)C(C)(CCC(=O)Nc2c(O)ccc(C(=O)O)c2O)C2C3CC4CC12CC4(C)O3 (centres undefined)

>  <MIC>
≤ 0.5 µg/mL

$$$$

// query MIC value for entry CC12CC34CC1CC(O2)C3C(C)(CCC(=O)Nc1c(O)ccc(C(=O)O)c1O)C(=O)C=C4c1ccccc1 (centres undefined)
≤ 0.5 µg/mL

And then C[C@@H]1C2OC3(C)CC4(CC13)C(c1ccccc1)=CC(=O)C(C)(CCC(=O)Nc1c(O)ccc(C(=O)O)c1O)C24 (some centres undefined) , what is it?
≤ 0.5 µg/mL

And then CC12CC34C=CC(=O)C(C)(CCC(=O)Nc5c(O)ccc(C(=O)O)c5O)C3C(O1)[C@@H](Cl)C2C4 (some centres undefined) , what is it?
2 µg/mL

* * *

test system: Staphylococcus aureus; test: Antimicrobial activity against methicillin-resistant Staphylococcus aureus isolate 6; type: functional
assay_metric: MIC (µg/mL)
Please respond with the number in µg/mL and leave the unit unwritten.

>  <compound>
CC1(CCC(=O)Nc2c(O)ccc(C(=O)O)c2O)C(=O)C=CC23CC4CC(OC4(c4ccccc4)C2)C31 (stereo not given)

>  <units_label>
µg/mL

>  <MIC>
2

$$$$
>  <compound>
CC12CC34C=CC(=O)C(C)(CCC(=O)Nc5c(O)ccc(C(=O)O)c5O)C3C(O1)[C@@H](Br)C2C4 (stereo not given in full)

>  <units_label>
µg/mL

>  <MIC>
2

$$$$

// query MIC value for entry CC12CC34C=CC(=O)C(C)(CCC(=O)Nc5c(O)ccc(C(=O)O)c5O)C3C(O1)[C@@H](Cl)C2C4 (stereo not given in full)
0.5
